molecular target: recombinant mouse artemin protein (Ala112-Gly224 fragment) (Mus musculus, UniProt Q9Z0L2); test: SPR
Sequence (Q9Z0L2 112-224): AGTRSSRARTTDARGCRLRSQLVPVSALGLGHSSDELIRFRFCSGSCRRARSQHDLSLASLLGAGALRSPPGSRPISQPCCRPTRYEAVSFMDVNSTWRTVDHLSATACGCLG
For each entry below, report its kon value.
Hi! Could you send only the number? It should be in M⁻¹ s⁻¹, unit omitted.

Record LU5 llama-VHH nanobody (naive) (VHH) VHH: QVQLVESGGGLVQAGASLRLSCAASGGTLVNSSMGWFRQAPGKERDFVATINWRGDTTWYGESVKGRFSISRDNAKNTVYLQMNSLNPEDTAVYYCAVYRTRYYTGRRMMSPDEYDVWGQGTQVTVSS , field kon: 49000

Record LU68 llama-VHH nanobody (naive) (VHH) VHH: QVQLVESGGGLVQAGGSLRLSCAASGRTLSRYAVGWFRQAPGKEREFVAVVHWNGVSTYYAEPVKGRFTISRDNAKNTVYLQMNSLKPDDTAVYYCAAATTSYVDIYTTDYDYWGQGTQVTVSS , field kon: 50000

Record LM41 llama-VHH nanobody (mutated) (VHH) VHH: QVQLVESGGGLVQAGGSLRLSCAASGRTLSRYAVGWFRQAPGKEREFVAVVHWNGVSTYHAEPVKGRFTISRDNAKNTVYLQMNSLKPDDTAVYYCAAATTSYVDIYTTDYDYWGQGTQVTVSS , field kon: 46000

Record LM52 llama-VHH nanobody (mutated) (VHH) VHH: QVQLVESGGGLVQAGASLRLSCAASGGTLVNSSMGWFRQAPGKERDFVATINWRGDTTWYGESVKGRFSISRDNTKNMVYLQMNSLKPEDTAVYYCAVYRTRYYTGRRMMSPDEYDVWGQGTQVTVSS , field kon: 39000
